Target: Histone deacetylase 8 (Homo sapiens, UniProt Q9BY41)
Sequence (Q9BY41 whole entry): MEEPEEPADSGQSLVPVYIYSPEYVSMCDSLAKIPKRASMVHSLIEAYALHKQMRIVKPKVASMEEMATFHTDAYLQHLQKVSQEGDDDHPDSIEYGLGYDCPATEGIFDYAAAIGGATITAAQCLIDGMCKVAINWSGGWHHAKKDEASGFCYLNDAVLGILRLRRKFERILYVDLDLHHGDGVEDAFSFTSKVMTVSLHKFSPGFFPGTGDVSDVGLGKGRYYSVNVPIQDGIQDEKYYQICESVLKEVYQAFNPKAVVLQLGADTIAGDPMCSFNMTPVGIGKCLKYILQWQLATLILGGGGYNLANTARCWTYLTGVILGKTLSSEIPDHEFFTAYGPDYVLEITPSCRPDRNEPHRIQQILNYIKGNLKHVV
Assay: Inhibition of full length human HDAC8 using FAM-labeled acetylated peptide as substrate by electrophoretic mobility shift assay
Readout: IC50 (nM)
// return numeric value only (unit: nM, not printed)

These solved cases illustrate the format of a correct answer.
Record request: IC50 value, item O=C(NO)c1ccc(CN(Cc2ccc(F)cc2)S(=O)(=O)c2c(F)c(F)c(F)c(F)c2F)cc1
367

Record request: IC50 value, item O=C(NO)c1ccc(CN(Cc2ccc(F)cc2)S(=O)(=O)c2cc(F)c(F)c(F)c2F)cc1
860

API: the following record is the query input.
Record request: IC50 value, item O=C(NO)c1ccc(CN(Cc2ccccc2F)S(=O)(=O)c2cc(F)c(F)c(F)c2F)cc1
241

The measurements presented in this section are drawn from ChEMBL document CHEMBL5042469.
